- System: HTT mRNA
- assayExplanation: Splicing RT-qPCR assay, HTT canonical (CJ) and alternative (AJ) junction mRNA
- Assay type: cell-based, human
- reportedConditions: A673 or K562 cells, 24 hours compound treatment, read-out: HTT CJ (IC50, decrease in canonical junction mRNA)

compound	experimentalSystem	IC50
CCn1cc2c(N3CC[C@@H](NC)C3)ccc(C(=O)Nc3cc(F)c4nc(C)cn4c3)c2n1	HTT mRNA	> 10 µM
Cc1cn2cc(NC(=O)c3ccc(N4CCNCC4)c4cn(C)nc34)c(C#N)cc2n1 [Compound 452]	HTT mRNA	> 10 µM
Cc1cn2cc(NC(=O)c3ccc(N4CCNCC4)c4cn(C)nc34)c(C#N)cc2n1 [Compound 444]	HTT mRNA	1 to 10 µM
